Test system: NA (H7N9)
Format: biochemical
Conditions: 200 µM

compound	Inhibition rate (%) NA(H7N9)
C/C(C=O)=C\CC[C@@H](C)[C@H]1CC[C@@]2(C)C3=C(CC[C@]12C)[C@@]1(C)CCC(=O)C(C)(C)[C@@H]1CC3=O	30.4 ± 3.5%
CC(CC(=O)C[C@@H](C)[C@H]1CC(=O)[C@@]2(C)C3=C(C(=O)C[C@]12C)[C@@]1(C)CC[C@H](O)C(C)(C)[C@@H]1CC3=O)C(=O)O (stereo partly shown)	14.1 ± 5.1%
CC(=O)O[C@H]1C[C@H]([C@H](C)CC/C=C(\C)C(=O)O)[C@@]2(C)CC=C3C(=CC[C@H]4C(C)(C)[C@@H](O)CC[C@]34C)[C@]12C	25.6 ± 1.6%
C/C(=C\C(=O)CC(C)C(=O)O)[C@H]1C[C@H](O)[C@@]2(C)C3=C(C(=O)C[C@]12C)[C@@]1(C)CCC(=O)C(C)(C)[C@@H]1C[C@@H]3O (stereo partly shown)	23.3 ± 3.1%
C/C(C=O)=C\CC[C@@H](C)[C@H]1CC[C@@]2(C)C3=CC[C@H]4C(C)(C)[C@@H](O)CC[C@]4(C)C3=CC[C@]12C	24.5 ± 1.6%
C/C(=C\CC[C@@H](C)[C@H]1CC[C@@]2(C)C3=C(CC[C@]12C)[C@@]1(C)CCC(=O)C(C)(C)[C@@H]1CC3=O)C(=O)O	29.4 ± 3.8%
CC(CC(=O)C[C@@H](C)[C@H]1CC(=O)[C@@]2(C)C3=C(C(=O)[C@@H](O)[C@]12C)[C@@]1(C)CC[C@H](O)C(C)(C)[C@@H]1CC3=O)C(=O)O (stereo partly shown)	25.7 ± 1.3%
C/C(=C\C(=O)CC(C)C(=O)O)[C@H]1CC(=O)[C@@]2(C)C3=C(C(=O)C[C@]12C)[C@@]1(C)CC[C@H](O)C(C)(C)[C@@H]1CC3=O (stereo partly shown)	38.6 ± 6.2%
C[C@H](CC(=O)C[C@@H](C)[C@H]1C[C@H](O)[C@@]2(C)C3=C(C(=O)C[C@]12C)[C@@]1(C)CCC(=O)C(C)(C)[C@@H]1C[C@@H]3O)C(=O)O	6.3 ± 2.2%
C/C(=C/CC[C@@H](C)[C@H]1CC[C@@]2(C)C3=CC[C@H]4C(C)(C)C(=O)CC[C@]4(C)C3=CC[C@]12C)C(=O)O	31.9 ± 2.3%
CC(CC(=O)C[C@@H](C)[C@H]1C[C@H](O)[C@@]2(C)C3=C(C(=O)C[C@]12C)[C@@]1(C)CCC(=O)C(C)(C)[C@@H]1CC3)C(=O)O (stereo partly shown)	16.7 ± 3.4%
C/C(=C\[C@@H](O)C[C@@H](C)[C@H]1CC(=O)[C@@]2(C)C3=C(C(=O)C[C@]12C)[C@@]1(C)CCC(=O)C(C)(C)[C@@H]1C[C@@H]3O)C(=O)O	12.7 ± 9.6%
C/C(=C\CC[C@@H](C)[C@H]1CC[C@@]2(C)C3=CC[C@H]4C(C)(C)C(=O)CC[C@]4(C)C3=CC[C@]12C)CO	15.9 ± 3.7%
CC(=O)O[C@@H]1C(=O)C2=C(C(=O)C[C@H]3C(C)(C)C(=O)CC[C@]23C)[C@]2(C)C(=O)C[C@H]([C@H](C)CC(=O)CC(C)C(=O)O)[C@@]12C (stereo partly shown)	14.8 ± 2.6%
C/C(=C\[C@@H](O)C[C@@H](C)[C@H]1CC(=O)[C@@]2(C)C3=C(C(=O)C[C@]12C)[C@@]1(C)CC[C@H](O)C(C)(C)[C@@H]1CC3=O)C(=O)O	17.7 ± 2.4%
C/C(=C\C(=O)CC(C)C(=O)O)[C@H]1CC(=O)[C@@]2(C)C3=C(C(=O)C[C@]12C)[C@@]1(C)CCC(=O)C(C)(C)[C@@H]1CC3=O (stereo partly shown)	34.2 ± 4.7%
C/C(=C\CC[C@@H](C)[C@H]1CC[C@@]2(C)C3=CC[C@H]4C(C)(C)[C@@H](O)CC[C@]4(C)C3=CC[C@]12C)CO	21.8 ± 3.5%
C/C(=C\CC[C@@H](C)[C@H]1C[C@H](O)[C@@]2(C)C3=CC[C@H]4C(C)(C)C(=O)CC[C@]4(C)C3=CC[C@]12C)C(=O)O	24.0 ± 1.8%
C/C(=C\C(=O)CC(C)C(=O)O)C1CC(O)C2(C)C3=C(C(=O)CC12C)C1(C)CCC(O)C(C)(C)C1CC3O (stereo not shown)	27.2 ± 0.5%
